Reported % binding (parent = 100) values are given for each entry in this list.
- TARGET: T1, human C5 (human, UniProt P01031 19-673; P01031 678-1676, Beta and alpha chains are disulfide-linked and the protein is glycosylated.)
- T1 construct: Either in-house recombinant C5 or plasma derived C5 (CALBIOCHEM) was used; also called recombinant human C5; plasma derived human C5
- PROTOCOL_NOTES: Biacore, captured antibody, pH 7.4, 37 C;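 also: biacore binding response of anti-C5 antibody light chain variants captured on chip with human C5 injected, ACES running buffer containing 1.2 mM CaCl₂, parent light chain antibody set to 100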
A bare number is not enough; add the unit after it.

Q) Fill in: % binding (parent = 100) of CFP0021 21L 92N (antibody, V domains shown) VH: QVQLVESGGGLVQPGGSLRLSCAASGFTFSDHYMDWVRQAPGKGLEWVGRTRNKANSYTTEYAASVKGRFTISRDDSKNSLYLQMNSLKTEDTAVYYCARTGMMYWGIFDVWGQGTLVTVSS VL: DIQMTQSPSSLSASVGDRVTITCRASQSIEDDLAWYQQKPGKAPKLLIYHASTLQSGVPSRFSGSGSGTDFTLTISSLQPEDFATYYCQQHNSYPLTFGQGTKVEIK is ___
A) 4.7%

Q) Fill in: % binding (parent = 100) of CFP0021 21L 94W (antibody, V domains shown) VH: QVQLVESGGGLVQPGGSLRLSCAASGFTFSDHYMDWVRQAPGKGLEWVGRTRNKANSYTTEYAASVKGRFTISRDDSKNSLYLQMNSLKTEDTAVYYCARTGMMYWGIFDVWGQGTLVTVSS VL: DIQMTQSPSSLSASVGDRVTITCRASQSIEDDLAWYQQKPGKAPKLLIYHASTLQSGVPSRFSGSGSGTDFTLTISSLQPEDFATYYCQQHDSWPLTFGQGTKVEIK is ___
A) 1.3%

Q) Fill in: % binding (parent = 100) of CFP0021 21L 91Y (antibody, V domains shown) VH: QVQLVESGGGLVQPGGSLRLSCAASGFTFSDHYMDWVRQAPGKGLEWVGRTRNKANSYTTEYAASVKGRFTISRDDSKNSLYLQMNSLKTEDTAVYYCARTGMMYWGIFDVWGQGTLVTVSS VL: DIQMTQSPSSLSASVGDRVTITCRASQSIEDDLAWYQQKPGKAPKLLIYHASTLQSGVPSRFSGSGSGTDFTLTISSLQPEDFATYYCQQYDSYPLTFGQGTKVEIK is ___
A) 79.5%
